Tested on: MKL-1 cells (VP-MCC)
Assay: qHTS cell viability (CellTiter-Glo, 72 h; primary and follow-up small molecule screen)
Format: cell-based, human
Conditions: follow-up screen; MKL-1; replicate 3
Counter-ions that a name gives are not always drawn.
Decision: Area under the dose-response curve (AUC) MKL-1 Replicate 3 compared against 300; not below it gives 1 (yes), below it gives 0 (no).

[Q] Answer whether Area under the dose-response curve (AUC) MKL-1 Replicate 3 of C[C@@H]1O[C@@H](O[C@H]2C[C@@H](O)[C@]3(CO)[C@H]4[C@H](O)C[C@]5(C)[C@@H](C6=CC(=O)OC6)CC[C@]5(O)[C@@H]4CC[C@]3(O)C2)[C@H](O)[C@H](O)[C@H]1O is greater than or equal to 300.
[A] 0 (no)

[Q] Answer whether Area under the dose-response curve (AUC) MKL-1 Replicate 3 of Nc1ncnc2c1ncn2[C@@H]1O[C@H](CO)[C@@H](O)[C@H]1O is greater than or equal to 300.
[A] 1 (yes)

[Q] Answer whether Area under the dose-response curve (AUC) MKL-1 Replicate 3 of CCCCCCC[N+](CC)(CC)CCCCc1ccc(Cl)cc1.Cc1ccc(S(=O)(=O)[O-])cc1 [Clofilium tosylate] is greater than or equal to 300.
[A] 1 (yes)

[Q] Answer whether Area under the dose-response curve (AUC) MKL-1 Replicate 3 of CC[C@@]1(O)C(=O)OCc2c1cc1n(c2=O)Cc2cc3ccccc3nc2-1 is greater than or equal to 300.
[A] 0 (no)

[Q] Answer whether Area under the dose-response curve (AUC) MKL-1 Replicate 3 of COc1ccc2c(c[n+](C)c3c4cc5c(cc4ccc23)OCO5)c1OC [Chelerythrine chloride] is greater than or equal to 300.
[A] 1 (yes)

[Q] Answer whether Area under the dose-response curve (AUC) MKL-1 Replicate 3 of N#CC(=C(/N)Sc1ccccc1N)/C(C#N)=C(\N)Sc1ccccc1N is greater than or equal to 300.
[A] 1 (yes)

[Q] Answer whether Area under the dose-response curve (AUC) MKL-1 Replicate 3 of Cc1cc(Nc2cc(N3CCN(C)CC3)nc(Sc3ccc(NC(=O)C4CC4)cc3)n2)[nH]n1 [Tozasertib, reference compound] is greater than or equal to 300.
[A] 1 (yes)

[Q] Answer whether Area under the dose-response curve (AUC) MKL-1 Replicate 3 of O=c1cc(-c2ccc(O)cc2)oc2cc(O)cc(O)c12 is greater than or equal to 300.
[A] 1 (yes)

[Q] Answer whether Area under the dose-response curve (AUC) MKL-1 Replicate 3 of CO/C1=C\C(C)=C\[C@@H](C)[C@@H](O)[C@@H](C)C/C(C)=C/C=C/[C@H](OC)[C@@H]([C@@H](C)[C@@H](O)[C@H](C)[C@@]2(O)C[C@@H](O)[C@H](C)[C@@H](C(C)C)O2)OC1=O is greater than or equal to 300.
[A] 1 (yes)

[Q] Answer whether Area under the dose-response curve (AUC) MKL-1 Replicate 3 of Cc1ccc(NC(=O)c2cccc(N(C)C)c2)cc1NC(=O)c1ccc(O)cc1 is greater than or equal to 300.
[A] 1 (yes)

[Q] Answer whether Area under the dose-response curve (AUC) MKL-1 Replicate 3 of CCCCCCCCCCCCCCCC[N+](C)(C)CC [Ethylhexadecyldimethylammonium bromide] is greater than or equal to 300.
[A] 1 (yes)

[Q] Answer whether Area under the dose-response curve (AUC) MKL-1 Replicate 3 of C[C@H]1CCC/C=C/[C@@H]2C[C@H](O)C[C@H]2[C@H](O)/C=C/C(=O)O1 is greater than or equal to 300.
[A] 0 (no)

[Q] Answer whether Area under the dose-response curve (AUC) MKL-1 Replicate 3 of CC#C[C@]1(O)CC[C@H]2[C@@H]3CCC4=CC(=O)CCC4=C3[C@@H](c3ccc(N(C)C)cc3)C[C@@]21C is greater than or equal to 300.
[A] 1 (yes)

[Q] Answer whether Area under the dose-response curve (AUC) MKL-1 Replicate 3 of CCc1c2c(nc3ccc(O)cc13)-c1cc3c(c(=O)n1C2)COC(=O)[C@]3(O)CC is greater than or equal to 300.
[A] 0 (no)

[Q] Answer whether Area under the dose-response curve (AUC) MKL-1 Replicate 3 of O=c1c(O)c(-c2ccccc2)oc2cc(O)cc(O)c12 [Galangin] is greater than or equal to 300.
[A] 1 (yes)

[Q] Answer whether Area under the dose-response curve (AUC) MKL-1 Replicate 3 of O=C(CCN1CCC(c2ccccc2)C1)c1ccc2c(c1)OCCO2 (centres unmarked) is greater than or equal to 300.
[A] 1 (yes)

[Q] Answer whether Area under the dose-response curve (AUC) MKL-1 Replicate 3 of Cc1cc(Nc2ncc3c(n2)N(C)C(=O)N(c2cc(NC(=O)c4cccc(C(F)(F)F)c4)ccc2C)C3)n(C)n1 is greater than or equal to 300.
[A] 1 (yes)

[Q] Answer whether Area under the dose-response curve (AUC) MKL-1 Replicate 3 of O=C(CCc1ccc(O)cc1)c1c(O)cc(O)cc1O is greater than or equal to 300.
[A] 1 (yes)

[Q] Answer whether Area under the dose-response curve (AUC) MKL-1 Replicate 3 of O=c1cc(-c2ccc(O)c(O)c2)oc2cc(O)cc(O)c12 is greater than or equal to 300.
[A] 1 (yes)

[Q] Answer whether Area under the dose-response curve (AUC) MKL-1 Replicate 3 of CN(C(Cc1ccc(O[S+](=O)([O-])c2cccc3cnccc23)cc1)C(=O)N1CCN(c2ccccc2)CC1)[S+](=O)([O-])c1cccc2cnccc12 (centres unmarked) is greater than or equal to 300.
[A] 1 (yes)

[Q] Answer whether Area under the dose-response curve (AUC) MKL-1 Replicate 3 of [O-][n+]1ccccc1SSc1cccc[n+]1[O-] is greater than or equal to 300.
[A] 0 (no)

[Q] Answer whether Area under the dose-response curve (AUC) MKL-1 Replicate 3 of CC[C@@]1(O)C(=O)OCc2c1cc1n(c2=O)Cc2cc3c(CN(C)C)c(O)ccc3nc2-1 [Topotecan HCl] is greater than or equal to 300.
[A] 0 (no)

[Q] Answer whether Area under the dose-response curve (AUC) MKL-1 Replicate 3 of O=C(CCCN1CCC(O)(c2ccc(Br)cc2)CC1)c1ccc(F)cc1 is greater than or equal to 300.
[A] 1 (yes)

[Q] Answer whether Area under the dose-response curve (AUC) MKL-1 Replicate 3 of COc1ccc(OC)c(-c2nnc3ccc(-c4ccc(OC)c(O[C@@H]5CCOC5)c4)nn23)c1 is greater than or equal to 300.
[A] 1 (yes)

[Q] Answer whether Area under the dose-response curve (AUC) MKL-1 Replicate 3 of CCCCCCCCCCCC1=C(O)C(=O)C=C(O)C1=O is greater than or equal to 300.
[A] 1 (yes)

[Q] Answer whether Area under the dose-response curve (AUC) MKL-1 Replicate 3 of O=c1c(O)c(-c2ccccc2)oc2cc(O)cc(O)c12 [GALANGIN] is greater than or equal to 300.
[A] 1 (yes)

[Q] Answer whether Area under the dose-response curve (AUC) MKL-1 Replicate 3 of CCN(CC)C(=S)SSC(=S)N(CC)CC is greater than or equal to 300.
[A] 0 (no)

[Q] Answer whether Area under the dose-response curve (AUC) MKL-1 Replicate 3 of COc1ccc(C(=O)CC(=O)c2ccc(C(C)(C)C)cc2)cc1 is greater than or equal to 300.
[A] 1 (yes)

[Q] Answer whether Area under the dose-response curve (AUC) MKL-1 Replicate 3 of Nc1nc(Cl)nc2c1ncn2[C@@H]1O[C@H](CO)[C@@H](O)[C@@H]1F is greater than or equal to 300.
[A] 0 (no)

[Q] Answer whether Area under the dose-response curve (AUC) MKL-1 Replicate 3 of COCc1c(C(C)C)nc(C(C)C)c(/C=C/[C@@H](O)C[C@@H](O)CC(=O)O)c1-c1ccc(F)cc1 [Cerivastatin sodium] is greater than or equal to 300.
[A] 1 (yes)

[Q] Answer whether Area under the dose-response curve (AUC) MKL-1 Replicate 3 of COc1ccc([C@]2(C#N)CC[C@@H](C(=O)O)CC2)cc1OC1CCCC1 is greater than or equal to 300.
[A] 1 (yes)
